Data origin, for the record: patent US12655116B2

# Lookup of reported Post-emergence action against SETVI in % keyed by entry
- System: SETVI
- protocol: Post-emergence herbicidal action against SETVI
- Type: in vivo, Setaria viridis
- measurement_conditions: dosage 20 g/ha
Lab book: enter the figure in %, no units written.

Exercise: Bench note: what Post-emergence action against SETVI in % did CSc1c(C(=O)Nc2nnnn2C)ccc(C(F)(F)F)c1C(=O)NCC1CC1 [Example 1-84] show?
Solution: 100

---

# Lookup of reported Pre-emergence action against VERPE in % keyed by entry
- Test system: VERPE
- protocol: Pre-emergence herbicidal action against VERPE
- Format: in vivo, Veronica persica
- measurement_conditions: dosage 80 g/ha
Lab book: enter the figure in %, no units written.

CCn1nnnc1NC(=O)c1ccc(C(F)F)c(C(=O)NCC2CCCO2)c1Cl (stereo not shown)    80
CCc1c(C(=O)Nc2nnnn2CC)ccc(C(F)(F)F)c1C(=O)NC    100
CCn1nnnc1NC(=O)c1ccc(C(F)(F)F)c(C(=O)NCC2CC2)c1SC    80

Exercise: Give VERPE Pre-emergence action against VERPE in % for `CCNC(=O)c1c(C(F)F)ccc(C(=O)Nc2nnnn2CC)c1SC`
Solution: 100
